Biological target: ABHD4 (UniProt Q8VD66)
Sequence (Q8VD66 whole entry, looked up): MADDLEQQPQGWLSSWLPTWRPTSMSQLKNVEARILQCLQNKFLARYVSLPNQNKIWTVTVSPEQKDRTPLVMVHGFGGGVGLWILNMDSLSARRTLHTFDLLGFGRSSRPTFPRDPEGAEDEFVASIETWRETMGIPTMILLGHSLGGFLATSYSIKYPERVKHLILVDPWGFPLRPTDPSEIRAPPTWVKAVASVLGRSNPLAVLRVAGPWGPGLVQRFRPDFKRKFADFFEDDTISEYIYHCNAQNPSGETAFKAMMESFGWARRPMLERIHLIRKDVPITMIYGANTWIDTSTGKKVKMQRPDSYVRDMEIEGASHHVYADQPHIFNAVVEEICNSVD
Experiment: competitive ABPP of pPAFAH versus proteome hydrolases – biochemical, gel-based, FP-Rh fluorescence, complex proteome, SAR compounds, selectivity assay for pPAFAH inhibitor project, SAR follow-up (AID 588774);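 also: 0% = DMSO-only band intensity and 100% = blank gel background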
Conditions: inhibition, at 0.1 µM, stronger effect = higher value
// no (0) strictly below 40% in inhibition; yes (1) otherwise

Example cases with answers are listed next.
> print(dat)
                               entry.smiles  assigned.label
1  Cc1cc(N2CCN(C(=O)Oc3ccc(C(F)(F)F)cc3)CC2)c2ccccc2n1          no (0)
2  Cc1cc(N2CCN(C(=O)n3oc4cc(Cl)ccc4c3=O)CC2)c2ccccc2n1          no (0)

Exercise: Please check the record Cc1cc(N2CCN(C(=O)n3ncc(-c4ccc(Cl)c(Cl)c4)n3)CC2)c2ccccc2n1 and state if its inhibition is at or above 40%.
Solution: yes (1)

Exercise: Please check the record Cc1cc(N2CCN(C(=O)n3ncc(-c4ccc([N+](=O)[O-])cc4)n3)CC2)c2ccccc2n1 and state if its inhibition is at or above 40%.
Solution: no (0)

Exercise: Please check the record Cc1cc(N2CCN(C(=O)n3ncc(-c4ccc(OC(F)(F)F)cc4)n3)CC2)c2ccccc2n1 and state if its inhibition is at or above 40%.
Solution: yes (1)

----------
System: LYPLA1
Assay: competitive ABPP of pPAFAH versus proteome hydrolases – biochemical, gel-based, FP-Rh fluorescence, complex proteome, SAR compounds, selectivity assay for pPAFAH inhibitor project, SAR follow-up (AID 588774);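 also: 0% = DMSO-only band intensity and 100% = blank gel background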
Conditions: at 10 µM, stronger effect = higher value
// f strictly below 80% in inhibition; t otherwise

Example cases with answers are listed next.
> print(dat)
                               entry.smiles  system  assigned.label
1  Cc1cc(N2CCN(C(=O)n3ncc(-c4ccc(Cl)c(Cl)c4)n3)CC2)c2ccccc2n1  LYPLA1               t
2  Cc1cc(N2CCN(C(=O)Oc3ccc(-n4cccc4)cc3)CC2)c2ccccc2n1  LYPLA1               f
3  Cc1cc(N2CCN(C(=O)Oc3ccc(C4CCCCC4)cc3)CC2)c2ccccc2n1  LYPLA1               f

Exercise: Please check the record Cc1cc(N2CCN(C(=O)n3ncc(-c4ccc(OC(F)(F)F)cc4)n3)CC2)c2ccccc2n1 and state if its inhibition is at or above 80%.
Solution: t

Exercise: Please check the record Cc1cc(N2CCN(C(=O)Oc3ccc(-c4ccc(Br)cc4)cc3)CC2)c2ccccc2n1 and state if its inhibition is at or above 80%.
Solution: f

Exercise: Please check the record Cc1cc(N2CCN(C(=O)n3ncc(-c4ccc([N+](=O)[O-])cc4)n3)CC2)c2ccccc2n1 and state if its inhibition is at or above 80%.
Solution: t

Exercise: Please check the record COc1ccc(-c2cnn(C(=O)N3CCN(c4cc(C)nc5ccccc45)CC3)n2)cc1 and state if its inhibition is at or above 80%.
Solution: t

Exercise: Please check the record O=C(Oc1noc2cc(Cl)ccc12)N1CCCCC1 and state if its inhibition is at or above 80%.
Solution: f

Exercise: Please check the record Cc1cc(N2CCN(C(=O)Oc3ccc(C(F)(F)F)cc3)CC2)c2ccccc2n1 and state if its inhibition is at or above 80%.
Solution: f

Exercise: Please check the record Cc1cc(N2CCN(C(=O)Oc3ccc([N+](=O)[O-])cc3)CC2)c2ccccc2n1 and state if its inhibition is at or above 80%.
Solution: f

Exercise: Please check the record O=C(Oc1noc2cc(Cl)ccc12)N1CCOCC1 and state if its inhibition is at or above 80%.
Solution: f

Exercise: Please check the record Cc1cc(N2CCN(C(=O)Oc3ccc(-c4ccccc4)cc3)CC2)c2ccccc2n1 and state if its inhibition is at or above 80%.
Solution: f

Exercise: Please check the record Cc1cc(N2CCN(C(=O)Oc3noc4cc(Cl)ccc34)CC2)c2ccccc2n1 and state if its inhibition is at or above 80%.
Solution: f

Exercise: Please check the record Cc1cc(N2CCN(C(=O)n3oc4cc(Cl)ccc4c3=O)CC2)c2ccccc2n1 and state if its inhibition is at or above 80%.
Solution: f

Exercise: Please check the record Cc1cc(N2CCN(C(=O)Oc3ccc(C4CCCC4)cc3)CC2)c2ccccc2n1 and state if its inhibition is at or above 80%.
Solution: f

Exercise: Please check the record Cc1cc(N2CCN(C(=O)n3ncc(-c4ccccc4)n3)CC2)c2ccccc2n1 and state if its inhibition is at or above 80%.
Solution: t

----------
Test system: FAAH
Assay: competitive ABPP of pPAFAH versus proteome hydrolases – biochemical, gel-based, FP-Rh fluorescence, complex proteome, SAR compounds, selectivity assay for pPAFAH inhibitor project, SAR follow-up (AID 588774);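 also: 0% = DMSO-only band intensity and 100% = blank gel background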
Settings: inhibition, at 0.1 µM, stronger effect = higher value
Assay metric: inhibition (%)
Form entry: value (%) — number only.

> print(dat)
                               entry.smiles  system  numeric.result
1  Cc1cc(N2CCN(C(=O)n3oc4cc(Cl)ccc4c3=O)CC2)c2ccccc2n1    FAAH              39
2  Cc1cc(N2CCN(C(=O)n3ncc(-c4ccc([N+](=O)[O-])cc4)n3)CC2)c2ccccc2n1    FAAH               6
3  COc1ccc(-c2cnn(C(=O)N3CCN(c4cc(C)nc5ccccc45)CC3)n2)cc1    FAAH              60
4  Cc1cc(N2CCN(C(=O)n3ncc(-c4ccccc4)n3)CC2)c2ccccc2n1    FAAH              63
5  Cc1cc(N2CCN(C(=O)Oc3ccc([N+](=O)[O-])cc3)CC2)c2ccccc2n1    FAAH              16

Here is the next item to consider.
Exercise: Please indicate inhibition recorded for O=C(Oc1noc2cc(Cl)ccc12)N1CCOCC1
Solution: 85

----------
Molecular target: Platelet-activating factor acetylhydrolase (Mus musculus) (UniProt Q60963)
Sequence (Q60963 whole entry, looked up): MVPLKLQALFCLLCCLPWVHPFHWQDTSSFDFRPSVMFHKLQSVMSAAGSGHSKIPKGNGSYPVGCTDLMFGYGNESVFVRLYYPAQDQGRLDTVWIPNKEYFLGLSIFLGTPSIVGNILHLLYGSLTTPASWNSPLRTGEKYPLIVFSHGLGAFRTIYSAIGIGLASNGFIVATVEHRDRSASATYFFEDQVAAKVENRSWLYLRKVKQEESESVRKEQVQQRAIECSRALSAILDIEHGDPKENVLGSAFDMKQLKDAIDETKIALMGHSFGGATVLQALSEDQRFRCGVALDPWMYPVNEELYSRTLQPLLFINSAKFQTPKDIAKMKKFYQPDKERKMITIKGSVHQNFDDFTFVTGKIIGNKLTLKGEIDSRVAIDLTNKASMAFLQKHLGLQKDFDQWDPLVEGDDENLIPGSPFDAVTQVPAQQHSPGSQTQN
Assay: competitive ABPP of pPAFAH versus proteome hydrolases – biochemical, gel-based, FP-Rh fluorescence, complex proteome, SAR compounds, selectivity assay for pPAFAH inhibitor project, SAR follow-up (AID 588774);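 also: 0% = DMSO-only band intensity and 100% = blank gel background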
Settings: pPAFAH, at 10 µM, stronger effect = higher value
Assay metric: inhibition (%)
Form entry: value (%) — number only.

> print(dat)
                               entry.smiles  assay.metric  numeric.result
1  Cc1cc(N2CCN(C(=O)Oc3ccc(C(F)(F)F)cc3)CC2)c2ccccc2n1    inhibition              93
2  Cc1cc(N2CCN(C(=O)n3ncc(-c4ccc([N+](=O)[O-])cc4)n3)CC2)c2ccccc2n1    inhibition              99
3  COc1ccc(-c2cnn(C(=O)N3CCN(c4cc(C)nc5ccccc45)CC3)n2)cc1    inhibition              96
4  Cc1cc(N2CCN(C(=O)n3ncc(-c4ccccc4)n3)CC2)c2ccccc2n1    inhibition              99
5  Cc1cc(N2CCN(C(=O)n3ncc(-c4ccc(Cl)c(Cl)c4)n3)CC2)c2ccccc2n1    inhibition             100
6  Cc1cc(N2CCN(C(=O)n3ncc(-c4ccc(OC(F)(F)F)cc4)n3)CC2)c2ccccc2n1    inhibition             100
7  Cc1cc(N2CCN(C(=O)Oc3ccc(C4CCCCC4)cc3)CC2)c2ccccc2n1    inhibition              95
8           O=C(Oc1noc2cc(Cl)ccc12)N1CCOCC1    inhibition             100
9  Cc1cc(N2CCN(C(=O)Oc3noc4cc(Cl)ccc34)CC2)c2ccccc2n1    inhibition             100

Here is the next item to consider.
Exercise: Please indicate inhibition recorded for O=C(Oc1noc2cc(Cl)ccc12)N1CCCCC1
Solution: 100

----------
System: ABHD6
Test: competitive ABPP of pPAFAH versus proteome hydrolases – biochemical, gel-based, FP-Rh fluorescence, complex proteome, SAR compounds, selectivity assay for pPAFAH inhibitor project, SAR follow-up (AID 588774);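 also: 0% = DMSO-only band intensity and 100% = blank gel background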
Conditions: inhibition, at 0.1 µM, stronger effect = higher value
// false (0) strictly below 20% in inhibition; true (1) otherwise

Example cases with answers are listed next.
> print(dat)
                               entry.smiles  assigned.label
1  Cc1cc(N2CCN(C(=O)n3ncc(-c4ccc(OC(F)(F)F)cc4)n3)CC2)c2ccccc2n1        true (1)
2           O=C(Oc1noc2cc(Cl)ccc12)N1CCOCC1        true (1)

Exercise: Please check the record Cc1cc(N2CCN(C(=O)n3ncc(-c4ccc(Cl)c(Cl)c4)n3)CC2)c2ccccc2n1 and state if its inhibition is at or above 20%.
Solution: false (0)

Exercise: Please check the record Cc1cc(N2CCN(C(=O)Oc3noc4cc(Cl)ccc34)CC2)c2ccccc2n1 and state if its inhibition is at or above 20%.
Solution: true (1)

Exercise: Please check the record COc1ccc(-c2cnn(C(=O)N3CCN(c4cc(C)nc5ccccc45)CC3)n2)cc1 and state if its inhibition is at or above 20%.
Solution: false (0)

Exercise: Please check the record Cc1cc(N2CCN(C(=O)n3oc4cc(Cl)ccc4c3=O)CC2)c2ccccc2n1 and state if its inhibition is at or above 20%.
Solution: false (0)

Exercise: Please check the record Cc1cc(N2CCN(C(=O)n3ncc(-c4ccc([N+](=O)[O-])cc4)n3)CC2)c2ccccc2n1 and state if its inhibition is at or above 20%.
Solution: false (0)

Exercise: Please check the record O=C(N1CCOCC1)n1oc2cc(Cl)ccc2c1=O and state if its inhibition is at or above 20%.
Solution: true (1)
